- tested-on: pooled human IgG (human IgG1, 2, 3 and 4)
reported-metric: Enzyme Activity Endpoint Assay: Fab′2 (ng/µL)

>  <protein>
PRT-542 (protein) MANQEIRYSKNENPNVTIKWVHGIGEPTQAEKEKIEFWWYETTTTKFFNNRKVDHLGDGNQCWAKTDSNMLHWWFVQNEENINQYIEKKNITGKINFNGEQMFDVKEGIDDNQEPEKSYIANTFRTKKAHNLSTKHKGDYIINGLSWYLYGLNNFKNAHGPTPVKKKPKFYGPALFKDVFNRGDGNTPIIVETDFKEYTKKEFEDTLSAALDSKKAVGINIYGSNVDYQHAITLWGAAFDEEENIIAIYVVDNNFKFENRIFPYGIWYQKEGRPYLFNYEINSFVKNRYVGEITTLDKGEAQWQETNLEHHHHHH

>  <reported-metric>
Enzyme Activity Endpoint Assay: Fab′2

>  <units-symbol>
ng/µL

>  <reported-measurement>
0

$$$$
>  <protein>
PRT-465 (protein) MVTSVWTKGVTPPANFTQGEDVFHAPYVANQGWYDITKTFNGKDDLLCGAATAGNMLHWWFDQNKDQIERYLKEHPEKQKINFNGEQMFDVKEAIDTKDSQTDSKLFEYFKEKAFPYLSTKHLGVFPDHVLDMFINGYRLSLTNHGPTPVKEGSKDPRGGIFDAVFTRGDQSKLLTSRHDLKNKTLKEISDLIKQELTEGKALGLSHTYANVRINHVINLWGADFDSEGNLKAIYVTDSDSNASIGMKKYFVGVNSAGKVAISAKEIKEDNIGAQVLGLFTLSTGQDIWNQTNLEHHHHHH

>  <reported-metric>
Enzyme Activity Endpoint Assay: Fab′2

>  <units-symbol>
ng/µL

>  <reported-measurement>
504

$$$$

Where do these numbers come from? They come from patent US20250027068.
